Source: PubChem BioAssay AID602454

Assay: qHTS Assay for Inhibitors of Influenza NS1 Protein Function: Viral Replication TCID50
Settings: Influenza virus replication in cells, viral titer, at 5 µM, stronger effect = lower value
Inconclusive results are not listed.
Observed property: viral titer (log10 TCID50)

A selection of reference data follows.
COc1cc(-c2c(C#N)c(=O)[nH]c3c2c(C)nn3-c2ccccc2)cc(OC)c1OC : 8.5
COc1cc(-c2c(C#N)c(N)nc3c2c(C)nn3-c2ccc(C)c(C)c2)ccc1O : 8.66
COc1cc(-c2c(C#N)c(N)nc3c2c(C)nn3-c2ccc(F)cc2)cc(OC)c1OC : 9

Q: // query viral titer (log10 TCID50) value for entry COc1ccc(-c2c(C#N)c(N)nc3c2c(C)nn3-c2ccc(Cl)cc2)cc1OC
Ans: 9

Q: // query viral titer (log10 TCID50) value for entry COc1cc(-c2ccnc3c2c(C)nn3-c2ccc(F)cc2)ccc1O
Ans: 8.88

Q: // query viral titer (log10 TCID50) value for entry COc1ccc(-c2ccnc3c2c(C)nn3-c2ccc(F)cc2)cc1
Ans: 9

Q: // query viral titer (log10 TCID50) value for entry COc1ccc(-c2c(C#N)c(N)nc3c2c(C)nn3-c2ccccc2)cc1OC
Ans: 9

Q: // query viral titer (log10 TCID50) value for entry COc1cc(-c2c(C#N)c(N)nc3c2c(C)nn3-c2ccc(C)c(C)c2)cc(OC)c1OC
Ans: 9

====

Test: qHTS Assay for Inhibitors of Influenza NS1 Protein Function: Viral Replication TCID50
Details: Influenza virus replication in cells, at 10 µM, stronger effect = lower value
Inconclusive results are not listed.
Documented viral titer (log10 TCID50) across a set of molecules
Lab note: jot down the number only; don't add units.

A selection of reference data follows.
CCOc1cc(-c2c(C#N)c(=O)[nH]c3c2c(C)nn3-c2ccc(F)cc2)ccc1O : 8.66
COc1ccc(-c2ccnc3c2c(C)nn3-c2ccc(F)cc2)cc1OC : 8.66
COc1cc(-c2c(C#N)c(N)nc3c2c(C)nn3-c2ccc(C)cc2)cc(OC)c1OC : 8.66
COc1ccc(-c2c(C#N)c(=O)[nH]c3c2c(C)nn3-c2ccc(F)cc2)cc1OC : 9
COc1ccc(-c2c3c(C)nn(-c4ccccc4)c3nc3[nH]c(=O)[nH]c(=O)c23)cc1O : 8.66
COc1cccc(-n2nc(C)c3c(-c4ccc(O)c(OC)c4)ccnc32)c1 : 9

Q: // query viral titer (log10 TCID50) value for entry Cc1nn(-c2ccc(F)cc2)c2nc(N)c(C#N)c(-c3ccc(O)c(O)c3)c12
Ans: 7.66

Q: // query viral titer (log10 TCID50) value for entry COc1cc(-c2c(C#N)c(N)nc3c2c(C)nn3-c2ccc(C)cc2)ccc1O
Ans: 8.5

Q: // query viral titer (log10 TCID50) value for entry COc1ccc(-c2ccnc3c2c(C)nn3-c2ccc(F)cc2)cc1
Ans: 8.33

Q: // query viral titer (log10 TCID50) value for entry COc1cc(-c2c3c(C)nn(-c4ccccc4)c3nc3[nH]c(=O)[nH]c(=O)c23)ccc1O
Ans: 8.66

Q: // query viral titer (log10 TCID50) value for entry Cc1nn(-c2ccccc2)c2nc3[nH]c(=O)[nH]c(=O)c3c(-c3ccc4c(c3)OCO4)c12
Ans: 8.33

Q: // query viral titer (log10 TCID50) value for entry COc1cc(-c2ccnc3c2c(C)nn3-c2ccccc2)ccc1O
Ans: 9
